Test system: DMS-273
Assay overview: NCI tumour cell line growth inhibition, 48 h
The source made the active and inactive calls. No stated cut-off is given here; in the data, active = GI50 up to about 1.1 µM and inactive = higher.
Measure: GI50

Solved entries (count: 3):
Please give measured GI50 of the following entry: CC(=O)O[C@H]1CSC[C@@H](OC(C)=O)C1[N+](=O)[O-] (some centres undefined)
> 100 µM (inactive)

Report GI50, nothing else, for this compound: "N#CCCC[Si]12OCCN(CCO1)CCO2"
> 100 µM (inactive)

Dear colleague, please send me the reported GI50 for "O=C1CCC(=O)C1=NNc1ccccc1" when you can.
> 100 µM (inactive)

Now look at this one.
Report GI50, nothing else, for this compound: O=c1[nH]cnc(NC2C=C(CO)C(O)C2O)c1[N+](=O)[O-] (centres undefined)
> 47.2 µM (inactive)

---

Test system: NCI-H226
Assay overview: NCI tumour cell line growth inhibition, 48 h
Calls of active or inactive are those of the source. Rule as the data show it: active = GI50 up to about 1.1 µM and inactive = higher.
Measure: GI50

Give GI50 for "O=[N+]([O-])c1ccc2c(c1)c1nn2CCCCOc2nn(c3ccc([N+](=O)[O-])cc23)CCCCO1"
> 100 µM (inactive)

Could you please provide reported GI50 for "COc1cc2cc(OC(C)=O)c3cc4c(cc3c2c(OC)c1OC)OCO4" ? Thanks!
> 100 µM (inactive)

For the compound "Cc1nnc(N)nc1/C=C\c1ccc(Cl)cc1Cl" , give its reported GI50.
17.3 µM (inactive)

For "CN(C)S(=O)(=O)n1ccnc1" , write its GI50.
> 100 µM (inactive)

// next entry
Specify GI50 for Cc1ccc(C2SC(=N)Nc3c2c(C)nn3C(=O)c2ccccc2O)cc1 (configuration not stated) and stop.
> 10 µM (inactive)

---

Tested on: NCI-H226
Assay overview: NCI tumour cell line growth inhibition, 48 h
The source made the active and inactive calls. No stated cut-off is given here; in the data, active = GI50 up to about 1.1 µM and inactive = higher.
Measure: GI50

// fetch GI50; item: "C(=C\c1ccc2ccccc2c1Nc1ccccc1)/c1ccccc1" ; system: NCI-H226
33.2 µM (inactive)

Report GI50 on NCI-H226 for this entry: COc1ccc(-c2nc3cc(C(F)(F)F)ccc3n2CC2CCCN3CCCCC23)cc1 (configuration not stated)
16.5 µM (inactive)

Fill in: GI50 on NCI-H226, entry "O=C1CN(/N=C/c2ccc(-c3ccc(F)cc3)o2)C(=O)N1"
32.2 µM (inactive)

# assay system NCI-H226: give GI50 of Cc1ccc(NC(=O)C2C3C=CC(O3)C2C(=O)O)cc1 (configuration not stated)
> 100 µM (inactive)

Using NCI-H226 as the test system, report measured GI50 of CCCCCCCCCCCCCCCCCCOCC(O)COP(=O)(O)OCC1OC(n2ccc(N)nc2=O)C(O)C1O (configuration not stated) .
> 100 µM (inactive)

Find GI50 for "CCCCCCCCCCCCCCCCNC(=O)/C(=C\c1ccc(Cl)c(Cl)c1)NC(=O)c1ccccc1" on NCI-H226 and write it down.
23.6 µM (inactive)

---
Under NCI-H226: report GI50 of "Clc1ccccc1C(n1cc(Br)cn1)n1cc(Br)cn1" .
> 10 µM (inactive)

Reference source: ChEMBL document CHEMBL1201862
